test: MM1S myeloma cell viability, profiling panel, resazurin fluorescence, basal, 24 h, PK04 Diversity Set (AID 1174); conditions: higher = more signal, called active from +8 up or from −8 down;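 also: MM1S multiple myeloma cell line; test concentration not given here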
Active and inactive are the calls of the source.
Provide the reported z-score of each item.

Cc1ccc(S[C@]2(C(=O)NCc3ccccc3)CC(=O)N(Cc3cc(C(F)(F)F)cc(C(F)(F)F)c3)[C@@H]2c2ccc(CO)cc2I)cc1 : -2.82 (inactive)

// each compound listed below needs its z-score
1. Cc1nc2cc(Br)ccc2c(=O)n1Cc1cccc(O)c1
2. C=C[C@H](C)[C@H](OC(=O)Nc1ccc(OC)cc1)c1ccc(OCCO)cc1
3. C=CCOC(=O)[C@H]1[C@@H]2C(=O)O[C@@H](c3ccccc3)[C@@H](c3ccccc3)N2[C@@H](c2ccc(OCCOC(=O)[C@H]3C[C@H]4C(=O)N[C@@H](CCCCNC(C)=O)C(=O)N4[C@H]3c3cccc(OCCO)c3)cc2)[C@]12C(=O)Nc1ccc(I)cc12
4. Cc1ccc(N2C(=O)c3ccccc3[C@](C)(C(=O)NCc3ccccc3)[C@@H]2c2ccc(CO)cc2)nc1
5. COC(=O)C(CC#Cc1ccc2c(c1)[C@]1(C(=O)N2)[C@H](C(=O)Nc2nc3ccccc3s2)[C@H]2C(=O)O[C@H](c3ccccc3)[C@H](c3ccccc3)N2[C@@H]1c1ccc(OCCO)cc1)C(=O)OC

Ans.
["-1.23 (inactive)", "1.69 (inactive)", "-0.682 (inactive)", "1.13 (inactive)", "0.973 (inactive)"]

Qu. I would be grateful if you could share the reported z-score for C=CCC(OC(C)=O)[C@@H]1[C@@H](N(Cc2ccc(-c3cccc(C(F)(F)F)c3)o2)C(=O)c2ccc(C)cc2)c2cc(OCCCO)ccc2N1C(=O)Cc1ccc(OC)cc1 (some centres not stated) .
Ans. 0.104 (inactive)

---

assay: binders of probe aFSTL3 on microarray, primary screen, stem cell growth factor project, biochemical, small-molecule microarray, fluorescence 635/667 (AID 1064); conditions: higher = more signal;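 also: measures binding of the biotinylated anti-FSTL3 antibody to printed compounds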
Measured composite z-score determines class: bin A: < -0.2; bin B: ≥ -0.2 and < 0.06; bin C: ≥ 0.06

COc1ccc(C#Cc2ccc3c(c2)[C@]2(C(=O)N3)[C@H](C(=O)N3CCCCCCC3)[C@H]3C(=O)O[C@H](c4ccccc4)[C@H](c4ccccc4)N3[C@@H]2c2ccc(O)cc2)cc1 : bin C
COc1ccc(C(O)C2C=CC3C(=O)N(c4ccccc4)C(=O)C3N2Nc2ccc(C(C)C)cc2)c2ccccc12 (stereo not drawn) : bin B

Qu. Which category does the recorded composite z-score put `CO[C@H]1O[C@H](CO)[C@@H](OC(=O)Nc2cccc(F)c2)[C@H](OC(=O)Nc2ccccc2-c2ccccc2)[C@H]1OC(=O)Nc1ccccc1-c1ccccc1` in?
Ans. bin A

Qu. Record: `C=CCNC(=O)[C@@H]1[C@H]2C(=O)O[C@H](c3ccccc3)[C@H](c3ccccc3)N2[C@H](c2ccc(OCCO)cc2)[C@@]12C(=O)N(C(=O)OCCOC)c1ccc(C#CCCO)cc12`
Ans. bin A

Qu. Queued: CC=CC(O)C1C=CC2C(=O)NC(=O)C2N1Nc1ccccn1 (stereo not drawn)
Ans. bin A

Qu. Item: `C=C(COC)/C(=C/C[C@H](OC(C)=O)c1cccc(OCCO)c1)c1cnc2ccccc2c1`
Ans. bin B

Qu. // same read-out, input: `C=C(COC)C(=O)CC[C@H](OC(=O)c1cccnc1)c1ccc(CO)o1`
Ans. bin A

Qu. Also need `O=C(O)[C@@H]1C[C@@H]2C(=O)N3CCC[C@H]3C(=O)N2[C@@H]1c1cccc(OCCO)c1` , thanks.
Ans. bin C

Qu. Try this compound next: `COc1cc2c(cc1OC)CN(C(=O)[C@@H]1[C@H]3C(=O)O[C@H](c4ccccc4)[C@H](c4ccccc4)N3[C@H](c3ccc(O)cc3)[C@@]13C(=O)Nc1ccc(C#CCCO)cc13)CC2`
Ans. bin A

Qu. Queued: CC(C)C[C@@H]1NC(=O)CNC(=O)[C@@]23C(=O)N[C@@H](Cc4ccccc4)C2[C@H](C)[C@@]2(C)O[C@H]2C3/C=C/C/C=C\CNC1=O (stereo partly drawn)
Ans. bin A

Qu. What do you have for `CCOC(=O)C[C@H]1[C@H](OC(=O)c2ccc(-c3ccccc3)cc2)[C@@H](NC(=O)Cc2ccc(OC)cc2)c2cc(OCCCO)ccc2N1C(=O)Cc1ccc(OC)cc1` ?
Ans. bin A

Qu. Query CCCCCN1CC=CC23O[C@@H]4C=CCOC(=O)[C@@H]4[C@H]2C(=O)N(CCO)[C@@H]3C1=O (stereo partly drawn) next
Ans. bin C

Qu. Then what about the compound Cc1ccccc1C(O)C1C=CC2C(=O)N(c3ccccc3)C(=O)C2N1Nc1ccc([N+](=O)[O-])cc1 (stereo not drawn) ?
Ans. bin B

Qu. Follow-up item: `COC(=O)C(CC#Cc1ccc2c(c1)[C@]1(C(=O)N2)[C@H](C(=O)Nc2nc3ccccc3s2)[C@H]2C(=O)O[C@H](c3ccccc3)[C@H](c3ccccc3)N2[C@@H]1c1ccc(OCCO)cc1)C(=O)OC`
Ans. bin C

Qu. Please do the same for `C=C(/C(=C/C[C@H](OC(=O)c1ccncc1)c1cccc(OCCO)c1)c1cnc2ccccc2c1)C(C)C` as well.
Ans. bin B

Qu. Field entry: `Cc1ccc(S[C@]2(C(=O)NCc3ccccc3)CC(=O)N(Cc3cc(C(F)(F)F)cc(C(F)(F)F)c3)[C@@H]2c2ccc(CO)cc2I)cc1`
Ans. bin C

Qu. # iterate: COCC1C2CC[C@H]3C(OCc4ccc(OC)cc4)OC[C@]4(C)[C@H]3C2=C(CN4C(=O)OC(C)(C)C)[C@H](C)C1COC (stereo partly drawn)
Ans. bin B

Qu. And `COc1ccc([Si](C)(C)[C@@H]2[C@@H](CCn3cc([C@H](O)c4ccccc4)nn3)O[C@]3(C(=O)N(Cc4cccc(N5C(=O)c6cccc7cccc5c67)c4)c4ccccc43)[C@H]2C)cc1` ?
Ans. bin B

Qu. Same for `COc1ccc(C#Cc2ccc3c(c2)[C@]2(C(=O)N3)[C@H](c3ccc(OCCO)cc3)N3[C@H](c4ccccc4)[C@H](c4ccccc4)OC(=O)[C@H]3[C@@H]2C(=O)N2CCc3cc(OC)c(OC)cc3C2)cc1`
Ans. bin A

Qu. What do you get for COc1cc2c(cc1O)C(c1ccc(CN3CCCC3)cc1)N(C)CC2 (stereo not drawn) ?
Ans. bin A

Qu. Record: `COC(=O)[C@@]1(Cc2ccccc2CN=[N+]=[N-])N=C(c2ccc(OCCCO)cc2)O[C@H]1c1ccccc1`
Ans. bin C

Qu. Try this compound too: CN1C=C(C(=O)OCCS(C)(=O)=O)C(C(=O)OCCS(C)(=O)=O)=CC(c2ccc(CO)cc2)=CC1c1cccs1 (stereo not drawn)
Ans. bin B

Qu. Follow-up entry: `COc1ccc(CCNC(=O)[C@@]2(Cc3ccccc3I)c3ccccc3C(=O)N(Cc3ccccc3Cl)[C@H]2c2ccc(CO)cc2)cc1`
Ans. bin C
